assay: Apparent volume of distribution in Sprague-Dawley rat at 1 mg/kg, iv by LC-MS/MS analysis; format: ADME, organism-based; details: in vivo, read-out: Vz
observation-type: Vd (L/kg)
Just the number please, in L/kg, no unit attached.

What value of measured Vd is listed for Cc1cccc(S(=O)(=O)Nc2cc(-c3sc(NC(=O)[C@@H](N)C(C)C)nc3C)cnc2Cl)c1 ?
6.21

---

test: Half life in Sprague-Dawley rat at 1 mg/kg, iv by LC-MS/MS analysis; assay type: ADME, organism-based; details: in vivo
observation-type: half-life
Remember to follow the number with its unit.

What value of measured half-life is listed for Cc1cccc(S(=O)(=O)Nc2cc(-c3sc(NC(=O)[C@@H](N)C(C)C)nc3C)cnc2Cl)c1 ?
2.36 h
